Measured Target: UniProtKB Q47899
Sequence (Q47899 92-443): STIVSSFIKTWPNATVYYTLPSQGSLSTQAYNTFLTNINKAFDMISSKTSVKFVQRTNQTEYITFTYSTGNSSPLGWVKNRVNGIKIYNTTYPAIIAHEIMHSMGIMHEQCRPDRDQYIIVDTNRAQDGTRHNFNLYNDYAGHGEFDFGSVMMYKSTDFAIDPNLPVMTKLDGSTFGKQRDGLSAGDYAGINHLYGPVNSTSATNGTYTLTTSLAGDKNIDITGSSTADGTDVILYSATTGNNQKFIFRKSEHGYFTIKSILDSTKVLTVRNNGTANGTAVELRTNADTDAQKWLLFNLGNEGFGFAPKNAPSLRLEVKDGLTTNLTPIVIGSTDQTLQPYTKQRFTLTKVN
Experiment Summary: in vitro
Condition Parameters: isolated enzyme
Result Type: remaining at 4.5 h, 400 μM

query: Field request: remaining at 4.5 h, 400 μM | item: CN(C)c1ccc2c(c1)Oc1cc(N(C)C)ccc1C21OC(=O)c2cc(C(=O)NCCCCCC(=O)N[C@@H](CCCNC(=N)N)C(=O)N[C@@H](CCC(=O)O)C(=O)N[C@H]3CCn4cc(nn4)CCCc4cn(nn4)CC[C@@H](C(=O)N[C@@H](CCC(=O)O)C(N)=O)NC(=O)CNC(=O)[C@H](CC(=O)O)NC(=O)CNC3=O)ccc21
result: ~100%
